Values from patent US20060089378A1

Collected IC50 values appear next to each entry.
- TARGET OF ASSAY: Cannabinoid CB1 Receptor (Homo sapiens)
- Construct: expressed in transfected cells
- METHOD SUMMARY: Binding assay for CB1 agonists or inverse agonists (radioligand competition, membranes of transfected SK-N-MC cells)
Please respond with the number in nM and leave the unit unwritten.

# count of solved cases: 2
CCNC(=O)N1CCc2c(c(C(=O)NC3C4(C)CCC(C4)C3(C)C)nn2C2CCCCC2)C1 (stereo not shown) :: 1000
CC(NC(=O)c1nn(-c2ccc(Cl)cc2)c2c1CNC/C2=C\c1ccc(F)cc1)c1ccccn1 (stereo not shown) :: 200

Asked: Consider the molecule CCNC(=O)N1C/C(=C\c2ccc(OC)cc2)c2c(c(C(=O)N[C@H](C)c3ccccc3)nn2-c2ccc(Cl)cc2Cl)C1 . State its measured IC50.
Given back: 9

Asked: Given the molecule CC(=O)N1CCc2c(c(C(=O)NC3C4(C)CCC(C4)C3(C)C)nn2C2CCCCC2)C1 (stereo not shown) , write its reported IC50.
Given back: 200

Asked: Find the measured IC50 of CC(NC(=O)c1nn(-c2ccc(Cl)cc2Cl)c2c1CN(S(C)(=O)=O)C/C2=C\c1ccc(F)cc1)c1ccccn1 (stereo not shown) and report it.
Given back: 5

Asked: Using the record for C[C@@H](NC(=O)c1nn(-c2ccc(Cl)cc2Cl)c2c1CN(S(C)(=O)=O)C/C2=C\c1ccc(F)cc1)c1ccccc1 , state its measured IC50.
Given back: 2

Asked: Indicate its recorded IC50; the molecule in question is COc1ccc(/C=C2\CN(C(C)=O)Cc3c(C(=O)N[C@H](C)c4ccccc4)nn(-c4ccc(Cl)cc4Cl)c32)cc1
Given back: 5

###

Catalogue of EC50 values
- TARGET OF ASSAY: UniProt:P21554
- METHOD SUMMARY: cell-based
State just the number; it will be interpreted in nM.

Record excerpt, results attached:
CC(NC(=O)c1nn(-c2ccc(Cl)cc2Cl)c2c1CN(C(=O)OC(C)(C)C)C/C2=C\c1ccc(F)cc1)c1ccccn1 (stereo not drawn) :: 20
COC(=O)N1CCc2c(c(C(=O)NC3C4(C)CCC(C4)C3(C)C)nn2C2CCCCC2)C1 (stereo not drawn) :: 200

Asked: Quick one: give measured EC50 for COC(=O)N1C/C(=C\c2ccc(F)cc2)c2c(c(C(=O)NN3CC4CCCC4C3)nn2-c2ccc(Cl)cc2)C1 (stereo not drawn)
Given back: 1

###

- TARGET OF ASSAY: CB1 receptor (human) (Homo sapiens)
- Sequence (P21554 whole entry): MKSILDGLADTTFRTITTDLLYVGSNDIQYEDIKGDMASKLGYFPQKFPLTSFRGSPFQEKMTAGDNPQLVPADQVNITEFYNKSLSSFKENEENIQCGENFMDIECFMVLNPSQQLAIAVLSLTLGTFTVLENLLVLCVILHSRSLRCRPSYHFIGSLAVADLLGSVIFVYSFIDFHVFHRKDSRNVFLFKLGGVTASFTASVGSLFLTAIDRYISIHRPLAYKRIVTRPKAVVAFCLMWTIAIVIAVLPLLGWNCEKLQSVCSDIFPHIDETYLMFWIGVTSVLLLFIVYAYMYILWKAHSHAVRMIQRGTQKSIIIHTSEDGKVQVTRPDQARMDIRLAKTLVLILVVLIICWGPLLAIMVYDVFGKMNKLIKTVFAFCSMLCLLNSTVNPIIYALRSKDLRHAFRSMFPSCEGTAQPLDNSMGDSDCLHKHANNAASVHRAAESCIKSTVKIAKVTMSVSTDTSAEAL
- METHOD SUMMARY: cell-based
Labelling: EC50 reported below 20 nM becomes Fulfilled; at or above becomes Not fulfilled.

COc1ccc(/C=C2\CNCc3c(C(=O)NN4CCCCC4)nn(-c4ccc(Cl)cc4Cl)c32)cc1 :: Fulfilled

Asked: Strictly below 20 nM in EC50? C[C@@H](NC(=O)c1nn(-c2ccc(Cl)cc2Cl)c2c1CN(C(=O)OC(C)(C)C)C/C2=C\c1ccc(F)cc1)C1CCCCC1
Given back: Not fulfilled

Asked: Is EC50 of CCOC(=O)CN1C/C(=C\c2ccc(OC)cc2)c2c(c(C(=O)NN3CCCCC3)nn2-c2ccc(Cl)cc2Cl)C1 strictly below 20 nM?
Given back: Not fulfilled

Asked: Answer whether the compound COc1ccc(/C=C2\CN(S(C)(=O)=O)Cc3c(C(=O)N[C@H](C)c4ccccn4)nn(-c4ccc(Cl)cc4Cl)c32)cc1 has EC50 strictly less than 20 nM
Given back: Fulfilled

Asked: Lab log: compare recorded EC50 with 20 nM; is it strictly lower for CC(=O)N1CCc2c(c(C(=O)NC3C4(C)CCC(C4)C3(C)C)nn2Cc2ccccc2)C1 (stereo not shown) ?
Given back: Not fulfilled

Asked: I wonder whether COc1ccc(/C=C2\CNCc3c(C(=O)NN4CC5CCCC5C4)nn(-c4ccc(Cl)cc4Cl)c32)cc1 (stereo not shown) has EC50 below 20 nM. Can you tell?
Given back: Fulfilled

###

- TARGET OF ASSAY: Cannabinoid CB1 Receptor (Homo sapiens, UniProt P21554)
- Construct: expressed in transfected cells
- Sequence (P21554 whole entry): as the sequence (P21554 whole entry) above
- METHOD SUMMARY: Binding assay for CB1 agonists or inverse agonists (radioligand competition, membranes of transfected SK-N-MC cells)
Labelling: IC50 reported below 100 nM becomes rule met; at or above becomes rule not met.

Sample answers from the record:
Cc1ccc(S(=O)(=O)N2CCc3c(c(C(=O)NC4C5(C)CCC(C5)C4(C)C)nn3C3CCCCC3)C2)cc1 (stereo not shown) [Cpd 124] :: rule not met
COC(=O)N1C/C(=C\c2ccc(F)cc2)c2c(c(C(=O)N[C@@H](C)C3CCCCC3)nn2-c2ccc(Cl)cc2Cl)C1 [Cpd 7] :: rule met
CCNC(=O)N1C/C(=C\c2ccc(F)cc2)c2c(c(C(=O)NC(C)c3ccccn3)nn2-c2ccc(Cl)cc2Cl)C1 (stereo not shown) [Cpd 24] :: rule met
COc1ccc(/C=C2\CN(S(=O)(=O)N(C)C)Cc3c(C(=O)N[C@H](C)c4ccccc4)nn(-c4ccc(Cl)cc4Cl)c32)cc1 [Cpd 47] :: rule met
C[C@@H](NC(=O)c1nn(-c2ccc(Cl)cc2Cl)c2c1CNC/C2=C\c1ccc(F)cc1)C1CCCCC1 [Cpd 28] :: rule met

Asked: Given the entry CC(=O)N1CCc2c(c(C(=O)NC3C4(C)CCC(C4)C3(C)C)nn2Cc2ccccc2)C1 (stereo not shown) [Cpd 109] , would its reported IC50 be below 100 nM?
Given back: rule not met

###

pIC50 listing for selected compounds.
- TARGET OF ASSAY: Cannabinoid CB2 Receptor (Homo sapiens)
- Construct: expressed in transfected cells
- Sequence (P34972 whole entry): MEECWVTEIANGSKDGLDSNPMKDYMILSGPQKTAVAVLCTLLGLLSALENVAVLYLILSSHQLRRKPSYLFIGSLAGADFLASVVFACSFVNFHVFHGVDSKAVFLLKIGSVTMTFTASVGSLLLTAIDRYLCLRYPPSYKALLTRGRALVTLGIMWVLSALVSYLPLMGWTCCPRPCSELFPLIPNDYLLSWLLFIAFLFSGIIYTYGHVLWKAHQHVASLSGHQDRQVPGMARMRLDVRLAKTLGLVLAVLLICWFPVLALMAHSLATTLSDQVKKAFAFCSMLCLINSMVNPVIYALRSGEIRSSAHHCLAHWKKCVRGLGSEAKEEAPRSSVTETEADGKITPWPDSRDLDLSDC
- METHOD SUMMARY: Binding assay for CB2 agonists or inverse agonists (radioligand competition, membranes of transfected SK-N-MC cells)
- DETAILS: human CB2, SK-N-MC cell membranes; calculated by linear regression from percent inhibition at various concentrations; read-out: Cannabinoid CB2 Receptor Binding IC50
Value format note: pIC50 is -log10 of concentration (mol/L); just state the number.

Reference set, count: 2
C[C@@H](NC(=O)c1nn(Cc2ccccc2)c2c1CN(C(=O)OC(C)(C)C)CC2)C1CCCCC1 :: 6.05
CC12CCC(C1)C(C)(C)C2NC(=O)c1nn(C2CCCCC2)c2c1CNCC2 (centres unmarked) :: 5.74

Asked: # return recorded pIC50 for entry COC(=O)CN1CCc2c(c(C(=O)NC3C4(C)CCC(C4)C3(C)C)nn2C2CCCCC2)C1 (centres unmarked)
Given back: 6.40

Asked: Using the record for CN(C)C(=O)N1CCc2c(c(C(=O)NC3C4CC5CC(C4)CC3C5)nn2C2CCCCC2)C1 (centres unmarked) , state its measured pIC50.
Given back: 6.70

Asked: Report pIC50, nothing else, for this compound: COC(=O)N1CCc2c(c(C(=O)NC3C4CC5CC(C4)CC3C5)nn2C2CCCCC2)C1 (centres unmarked)
Given back: 6.70

###

- TARGET OF ASSAY: Cannabinoid CB1 Receptor (Homo sapiens, UniProt P21554)
- Construct: expressed in transfected cells
- METHOD SUMMARY: Binding assay for CB1 agonists or inverse agonists (radioligand competition, membranes of transfected SK-N-MC cells)
EXPERIMENTAL ENDPOINT: IC50 (nM)
Respond numerically; units are nM and should not be typed.

COC(=O)N1C/C(=C\c2ccc(F)cc2)c2c(c(C(=O)N[C@H](C)C3CCCCC3)nn2-c2ccc(Cl)cc2Cl)C1 [Cpd 13] :: 2
CCOC(=O)CN1C/C(=C\c2ccc(OC)cc2)c2c(c(C(=O)N[C@H](C)c3ccccc3)nn2-c2ccc(Cl)cc2Cl)C1 [Cpd 48] :: 4
CCNC(=O)N1C/C(=C\c2ccc(F)cc2)c2c(c(C(=O)N[C@H](C)C3CCCCC3)nn2-c2ccc(Cl)cc2Cl)C1 [Cpd 32] :: 20

Asked: Return IC50 for the following molecule: Cc1ccc(S(=O)(=O)N2C/C(=C\c3ccc(F)cc3)c3c(c(C(=O)NC(C)c4ccccn4)nn3-c3ccc(Cl)cc3Cl)C2)cc1 (stereo not drawn) [Cpd 26]
Given back: 30

Asked: Output measured IC50 for this item: CC(=O)N1C/C(=C\c2ccc(F)cc2)c2c(c(C(=O)N[C@H](C)c3ccccc3)nn2-c2ccc(Cl)cc2Cl)C1 [Cpd 3]
Given back: 10

Asked: Consider the molecule O=C(NN1CC2CCCC2C1)c1nn(-c2ccc(Cl)cc2Cl)c2c1CNC/C2=C\c1ccc(F)cc1 (stereo not drawn) [Cpd 90] and give its recorded IC50.
Given back: 30

Asked: Output measured IC50 for this item: CC12CCC(C1)C(C)(C)C2NC(=O)c1nn(C2CCCCC2)c2c1CN(S(C)(=O)=O)CC2 (stereo not drawn) [Cpd 133]
Given back: 400

Asked: Note IC50 for the molecule shown: O=C(NN1CCCCC1)c1nn(-c2ccc(Cl)cc2Cl)c2c1CNC/C2=C\c1ccc(F)cc1 [Cpd 12]
Given back: 100

Asked: For the molecule CC(C)(C)OC(=O)N1CCc2c(c(C(=O)NC3C4CC5CC(C4)CC3C5)nn2C2CCCCC2)C1 (stereo not drawn) [Cpd 130] , give its reported IC50.
Given back: 60

Asked: Look up IC50 of CCNC(=O)N1C/C(=C\c2ccc(OC)cc2)c2c(c(C(=O)NC(C)c3ccccn3)nn2-c2ccc(Cl)cc2Cl)C1 (stereo not drawn) [Cpd 61] and report it.
Given back: 20

Asked: Please report IC50 for the following molecule: COC(=O)N1C/C(=C\c2ccc(F)cc2)c2c(c(C(=O)NC(C)c3ccccn3)nn2-c2ccc(Cl)cc2)C1 (stereo not drawn) [Cpd 79]
Given back: 10
